experiment description: in vivo
result type: selectivity ratio
Give the figure only, with no unit attached.

[ask] Which selectivity ratio is reported for this molecule? COCc1cc(C=Cc2ccccc2OCC(O)CNC(C)C)on1 (centres unmarked)
[reply] 18900

[ask] What value of measured selectivity ratio is listed for Cc1noc(C=Cc2ccccc2OCC(O)CNC(C)C)c1Cl (centres unmarked) ?
[reply] 75000

[ask] Could you share which selectivity ratio value was measured for COCc1cc(C=Cc2ccccc2OCC(O)CNC2CC2)on1 (centres unmarked) ?
[reply] 12100

[ask] Query: selectivity ratio; subject: COCc1cc(C=Cc2ccccc2OCC(O)CNC(C)(C)C)on1 (centres unmarked)
[reply] 13500

[ask] What does the record list as selectivity ratio for Cc1noc(C=Cc2ccccc2OCC(O)CNC(C)(C)C)c1Cl (centres unmarked) ?
[reply] 14700

* * *

experiment description: in vivo
details: mouse, ip
Kindly state LD50 for each of the entries shown.
Give the value in mg/kg but do not write mg/kg after it.

[ask] Consider the molecule COCc1cc(C=Cc2ccccc2OCC(O)CNC(C)C)on1 (centres unmarked) and give its measured LD50.
[reply] 121

[ask] I'd like to know its LD50. The molecule in question is COCc1cc(C=Cc2ccccc2OCC(O)CNC2CC2)on1 (centres unmarked)
[reply] 121

[ask] Could you share which LD50 value was measured for Cc1noc(C=Cc2ccccc2OCC(O)CNC(C)(C)C)c1Cl (centres unmarked) ?
[reply] 147

[ask] Record request: LD50 value, item COCc1cc(C=Cc2ccccc2OCC(O)CNC(C)(C)C)on1 (centres unmarked)
[reply] 100

[ask] // returns reported LD50 for input Cc1noc(C=Cc2ccccc2OCC(O)CNC(C)C)c1Cl (centres unmarked)
[reply] 511
